TESTED_SYSTEM: Cytochrome P450 1A2 (Homo sapiens) (UniProt P05177)
Sequence (P05177 whole entry, looked up): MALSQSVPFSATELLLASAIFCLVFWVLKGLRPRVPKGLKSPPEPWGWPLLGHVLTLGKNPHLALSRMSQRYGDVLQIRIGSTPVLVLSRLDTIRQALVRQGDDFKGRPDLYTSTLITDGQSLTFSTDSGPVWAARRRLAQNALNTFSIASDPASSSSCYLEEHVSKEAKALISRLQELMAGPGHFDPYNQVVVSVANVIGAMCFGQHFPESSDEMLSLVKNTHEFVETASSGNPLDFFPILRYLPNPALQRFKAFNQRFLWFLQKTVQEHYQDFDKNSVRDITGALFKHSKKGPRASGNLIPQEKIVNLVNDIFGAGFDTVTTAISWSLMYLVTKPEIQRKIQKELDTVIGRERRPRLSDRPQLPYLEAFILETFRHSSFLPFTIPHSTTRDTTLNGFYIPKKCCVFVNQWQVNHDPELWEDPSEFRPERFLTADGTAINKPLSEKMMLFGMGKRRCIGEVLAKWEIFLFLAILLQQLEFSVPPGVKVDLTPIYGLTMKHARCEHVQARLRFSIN
ASSAY_NOTES: Cytochrome panel assay with activity outcomes
TEST_CONTEXT: recombinant CYP, pro-luciferin dealkylation, luminescence, p450-cyp1a2; series mostly up to 57.1 µM
Screen size: about 16,000 compounds; about 5,700 (36%) were called active. About 24% were inconclusive and are not listed. The call rests on the fitted dose curve; in most records, active means well fitted curve in the direction sought with a large enough effect; inconclusive means small, poorly fitted or top-dose-only effect, or effect the other way; inactive means no such curve, though single readings can be large or run the other way. The list shows a part of the results.
# valid calls are 1 for active, -1 for inactive; nothing else

Known results for molecules:
MOLECULE	CLASS_LABEL
CS(=O)(=O)N1CCC2(CCN(C(=O)Nc3cccc(F)c3)CC2)CC1	-1
Nc1c(-c2cccs2)cnn1-c1nc(-c2ccc(F)cc2)cs1	1
CC1CC/C(=C\c2ccc3c(c2)OCO3)C(=O)/C1=C/c1ccc2c(c1)OCO2 (stereo not drawn)	1
Cc1cc(C)c(Cn2cnc(-c3ccc([N+](=O)[O-])cc3)c2)c(C)c1	1

For this molecule, state the assay outcome: CC(C)(CO)[C@H](O)C(=O)NCCCO
-1

// repeat for Cc1c(C)n(C(=O)CN2CCC(C)CC2)c2ccccc12 and report
1

// repeat for COC(=O)COc1ccc2c(-c3cccc([N+](=O)[O-])c3)cc(=O)oc2c1 and report
1

// repeat for CCC(Sc1nc2cc3c(cc2c(=O)n1Cc1ccco1)OCO3)C(=O)Nc1ccccc1OC (stereo not drawn) and report
-1

* * *

TESTED_SYSTEM: Cytochrome P450 1A2 (Homo sapiens)
ASSAY_NOTES: Cytochrome panel assay with activity outcomes
TEST_CONTEXT: recombinant CYP, pro-luciferin dealkylation, luminescence, p450-cyp1a2; series mostly up to 57.1 µM
In all, about 16,000 compounds went through this assay and about 5,700 (36%) were called active. Inconclusive results (about 24%) are left out. Calls come from the whole dose curve; as a rule, active = well fitted curve in the direction sought with a large enough effect; inconclusive = small, poorly fitted or top-dose-only effect, or effect the other way; inactive = no such curve, though single readings can be large or run the other way. The list shows a part of the results.
# valid calls are 1 (active), 0 (inactive); nothing else

Known results for compounds:
COMPOUND	CLASS_LABEL
CCN(CC)CCCN(Cc1cc2ccc(C)c(C)c2[nH]c1=O)C(=O)NC1CCCCC1	0
COc1ccccc1-c1nc(N(C)C)c2ccccc2n1	1
Cc1ccc(C(C(=O)NCc2ccco2)N(C(=O)CNC(=O)c2cccs2)c2ccc(C)cc2)cc1 (stereo not given)	0

For this compound, state the assay outcome: COc1cc(/C=C(\C#N)c2nc3c(s2)CC(C)CC3)ccc1O (stereo not given)
1

// repeat for COc1ccccc1N1CCN(CCCNc2cc(=O)n(C)c(=O)n2C)CC1 and report
0

// repeat for Cc1ccccc1-c1nc(N(C)C)c2ccccc2n1 and report
1

// repeat for CCC(NC(=O)c1ccccc1NC(=O)c1ccco1)C(=O)NC1CCCCC1 (stereo not given) and report
0

// repeat for CCCCOc1ccc(C(=O)CCN2CCCCC2)cc1 and report
1

// repeat for Cc1ccc(C(C(=O)NCc2ccco2)N(C(=O)CNC(=O)c2cccs2)c2ccc(C)cc2C)cc1 (stereo not given) and report
0

// repeat for Cc1ccc(C(=O)O/N=C\c2ccc(N3CCCCC3)c([N+](=O)[O-])c2)cc1 and report
1

// repeat for CC1=C(C(=O)Nc2ccccc2)C(c2ccco2)NC(=S)N1 (stereo not given) and report
0

* * *

TESTED_SYSTEM: Cytochrome P450 1A2 (Homo sapiens)
ASSAY_NOTES: Cytochrome panel assay with activity outcomes
TEST_CONTEXT: recombinant CYP, pro-luciferin dealkylation, luminescence, p450-cyp1a2; series mostly up to 57.1 µM
Among all 16,000 compounds or so, about 5,700 (36%) were called active. About 24% were inconclusive and are not listed. Calls follow the shape of the dose curve; as a rule, active = well fitted curve in the direction sought with a large enough effect; inconclusive = small, poorly fitted or top-dose-only effect, or effect the other way; inactive = no such curve, though single readings can be large or run the other way. This is one part of the list.
# valid calls are Y for active, N for inactive; nothing else

SMILES_STRUCTURE	CLASS_LABEL
CCOc1ccc(NC(=O)CN2CCN(S(=O)(=O)c3ccc(Cl)cc3)CC2)cc1	Y
c1ccc2cc(-c3cc(-c4cc(-c5ccc6ccccc6c5)on4)no3)ccc2c1	Y
COc1ccc(NC(=O)N2CC3(CCN(S(=O)(=O)c4ccccc4)CC3)C2)cc1	N

For this molecule, state the assay outcome: CCCC(=O)Nc1cc(-c2cn3cccnc3n2)ccc1OC
Y

// repeat for CC(C)CC(=O)Nc1ccc2c(c1)oc1ccccc12 and report
Y
